Source listed as PubChem BioAssay AID2060883.

system: 843782-103-R-J1-PDC complex spheroid viability; assay: Anticancer human tumor 843782-103-R-J1-PDC patient-derived lung adenocarcinoma cell line growth inhibition [RAS]; settings: second compound 0.003 µM; first compound 1 µM; stronger effect = lower value;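 note: viability read after seven days of compound exposure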
readoutType: viability, T/C (%)
Numbers only, in %.

Illustrative cases are given below, each with its answer.
CCN1CCN(Cc2ccc(Nc3ncc(F)c(-c4cc(F)c5nc(C)n(C(C)C)c5c4)n3)nc2)CC1 + CCn1c(-c2cc(N3CCN(C)CC3)cnc2C(C)OC)c2c3cc(ccc31)-c1csc(n1)CC(NC(=O)C1CC1C)C(=O)N1CCCC(N1)C(=O)OCC(C)(C)C2; 29.9
C=CC(=O)Nc1cc(Nc2nccc(-c3cn(C)c4ccccc34)n2)c(OC)cc1N(C)CCN(C)C + CCn1c(-c2cc(N3CCN(C)CC3)cnc2C(C)OC)c2c3cc(ccc31)-c1csc(n1)CC(NC(=O)C1CC1C)C(=O)N1CCCC(N1)C(=O)OCC(C)(C)C2; 30.2

Looking up C=CC(=O)Nc1cc(Nc2nccc(-c3cn(C)c4ccccc34)n2)c(OC)cc1N(C)CCN(C)C + CCn1c(-c2cccnc2C(C)OC)c2c3cc(ccc31)N1CCOC(CC(NC(=O)C(C(C)C)N(C)C(=O)C3(F)CCN(C(=O)C#CC(C)(C)N(C)C)CC3)C(=O)N3CCCC(N3)C(=O)OCC(C)(C)C2)C1 , I see its viability, T/C listed as 30.9
